Exercise: state measured Kd for each of the binders provided.
- tgt: Calmodulin (CaM), unmodified (UniProt P0DP23 1-149)
- experiment: fluorescence polarisation; synthetic FAM-labeled peptides of iPLA2β with CaM (Supplementary Figure 7h)
- assay_conditions: both partners purified
No end group written: not given here.
Provide the reading as a plain figure in µM.

Input line: Record request: Kd value, item AWSEMVGIQYFR (also: FAM label (position not given here)) [Synthetic FAM-labeled peptide corresponding to the IQ motif of iPLA2β]
Output line: 5.9

Input line: One more binder: RKGQGNKVKK (also: FAM label (position not given here)) [Synthetic FAM-labeled peptide corresponding to the 1-9-14 motif of iPLA2β]
Output line: 2.5
